All figures here come from ChEMBL document CHEMBL2218924.

Let's look at some molecules and their measured residual activity.
TARGET_OF_ASSAY: Tyrosine-protein kinase JAK2 (Homo sapiens) (UniProt O60674)
Sequence (O60674 whole entry): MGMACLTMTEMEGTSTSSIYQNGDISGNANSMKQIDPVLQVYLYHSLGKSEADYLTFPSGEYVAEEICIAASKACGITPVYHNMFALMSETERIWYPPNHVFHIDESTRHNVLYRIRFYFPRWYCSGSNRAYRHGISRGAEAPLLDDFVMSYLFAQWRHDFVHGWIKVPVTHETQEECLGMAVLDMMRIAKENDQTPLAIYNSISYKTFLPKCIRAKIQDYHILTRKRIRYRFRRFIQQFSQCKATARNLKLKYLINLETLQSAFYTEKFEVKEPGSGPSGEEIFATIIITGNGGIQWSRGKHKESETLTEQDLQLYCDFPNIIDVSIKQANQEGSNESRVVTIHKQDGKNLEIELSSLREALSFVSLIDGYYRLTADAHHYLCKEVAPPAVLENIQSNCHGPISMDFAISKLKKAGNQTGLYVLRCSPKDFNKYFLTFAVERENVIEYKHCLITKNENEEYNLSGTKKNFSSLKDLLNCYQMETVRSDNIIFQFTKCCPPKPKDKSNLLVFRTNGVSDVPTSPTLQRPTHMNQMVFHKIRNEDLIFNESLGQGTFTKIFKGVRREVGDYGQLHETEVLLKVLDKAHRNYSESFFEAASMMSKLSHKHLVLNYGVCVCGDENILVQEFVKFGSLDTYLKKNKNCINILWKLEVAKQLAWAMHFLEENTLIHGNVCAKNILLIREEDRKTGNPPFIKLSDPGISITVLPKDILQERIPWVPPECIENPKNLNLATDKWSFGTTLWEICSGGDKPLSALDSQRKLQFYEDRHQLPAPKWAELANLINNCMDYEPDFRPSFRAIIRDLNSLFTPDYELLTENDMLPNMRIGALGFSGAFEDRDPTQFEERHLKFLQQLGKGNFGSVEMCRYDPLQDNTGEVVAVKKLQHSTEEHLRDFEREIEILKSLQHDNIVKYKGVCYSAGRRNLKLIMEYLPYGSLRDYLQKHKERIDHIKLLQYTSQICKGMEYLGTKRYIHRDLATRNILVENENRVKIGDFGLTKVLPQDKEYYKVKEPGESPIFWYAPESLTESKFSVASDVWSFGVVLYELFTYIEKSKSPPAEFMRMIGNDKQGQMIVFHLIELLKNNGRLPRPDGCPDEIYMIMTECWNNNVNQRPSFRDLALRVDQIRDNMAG
TEST_SETTINGS: at 10 µM
OUTCOME_MEASURE: residual activity (%)

INSERT INTO measurements (given_smiles, readout_number) VALUES
  ('COc1ccc(C(=O)Nc2sc3c(c2C(N)=O)CCCC3)cc1OC', 101),
  ('O=Nc1c(-c2c(O)[nH]c3ccccc23)[nH]c2ccccc12', 11),
  ('Cc1nc2cc3nc(-c4cccs4)cnc3cc2n1C', 106),
  ('CO[C@H]1[C@@H](OC)C[C@H](C)[C@@H](OC)C2=CC(=O)C=C(NC(=O)/C(C)=C/C=C/[C@H](OC)[C@@H](OC(N)=O)/C(C)=C/[C@@H]1C)C2=O', 97),
  ('O=C1NC(=O)/C(=C/c2ccc3c(c2)OC(F)(F)O3)S1', 97),
  ('CO[C@H]1C[C@@H]2CC[C@@H](C)[C@@](O)(O2)C(=O)C(=O)N2CCCC[C@H]2C(=O)O[C@H]([C@H](C)C[C@@H]2CC[C@@H](O)[C@H](OC)C2)CC(=O)[C@H](C)/C=C(\C)[C@@H](O)[C@@H](OC)C(=O)[C@H](C)C[C@H](C)/C=C/C=C/C=C/1C', 160),
  ('O=c1c2ccccc2[nH]c(=S)n1CCN1CCC(=C(c2ccc(F)cc2)c2ccc(F)cc2)CC1', 102),
  ('Nc1nc(Nc2ccc(S(N)(=O)=O)cc2)nn1C(=S)Nc1c(F)cccc1F', 0),
  ('Oc1ccc(Nc2nc(-c3ccc(Cl)cc3)cs2)cc1', 97),
  ('CCN(CC)C(=O)c1ccc(Nc2nc(OCC3CCCCC3)c3nc[nH]c3n2)cc1', -1),
  ('Cc1nc(-c2ccccc2)c(-c2ccncc2)o1', 115),
  ('CC[n+]1c(/C=C/N(C)c2ccccc2)n(-c2ccccc2)c2ccc(-c3nc4ccccc4s3)cc21', 150),
  ('O=C(O)c1ccc2c3c1cccc3c(=O)n1c3ccccc3nc21', 40),
  ('N#Cc1cnc2cnc(NCc3cccnc3)cc2c1Nc1ccc(F)c(Cl)c1', 94),
  ('Nc1cccc(-c2cc3c(Oc4cccc(O)c4)ncnc3[nH]2)c1', 19),
  ('Ic1cccc(CSc2nnc(-c3ccncc3)o2)c1', 104),
  ('Nc1ccc2ncnc(NCCc3ccc(Oc4ccccc4)cc3)c2c1', 149),
  ('CNc1cc2c(Nc3cccc(Br)c3)ncnc2cn1', 56),
  ('COc1cccc(-c2cc(=O)c3ccccc3o2)c1N', 107),
  ('COc1cc2ncnc(Nc3ccc(Oc4ccccc4)cc3)c2cc1OC', 148);

----------
TARGET_OF_ASSAY: cAMP-dependent protein kinase catalytic subunit PRKX (Homo sapiens)
Sequence (whole entry): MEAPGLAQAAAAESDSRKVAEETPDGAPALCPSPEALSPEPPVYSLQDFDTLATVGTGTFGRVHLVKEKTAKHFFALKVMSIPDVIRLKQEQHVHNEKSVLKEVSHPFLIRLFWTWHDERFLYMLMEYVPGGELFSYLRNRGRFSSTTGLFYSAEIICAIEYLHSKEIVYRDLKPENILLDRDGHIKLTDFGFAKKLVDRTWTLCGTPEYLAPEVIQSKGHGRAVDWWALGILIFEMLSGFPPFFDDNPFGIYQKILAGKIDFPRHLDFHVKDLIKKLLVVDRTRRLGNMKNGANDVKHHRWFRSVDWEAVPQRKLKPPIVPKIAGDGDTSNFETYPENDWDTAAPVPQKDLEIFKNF
TEST_SETTINGS: at 10 µM
OUTCOME_MEASURE: residual activity (%)

INSERT INTO results (given_smiles, outcome_measure, readout_number) VALUES
  ('CCN(CC)CCCCN1c2ccccc2Oc2ccc(Cl)cc21', 'residual activity', 101),
  ('COc1ccc(CNc2nc(N(CCO)CCO)nc3c2ncn3C(C)C)cc1', 'residual activity', 101),
  ('Oc1n[nH]c2nnc(-c3c(-c4ccccc4)nn4ccccc34)cc12', 'residual activity', 81),
  ('COc1ccc(S(=O)(=O)N(CCO)c2ccccc2CN(C)C/C=C/c2ccc(Cl)cc2)cc1', 'residual activity', 51),
  ('N#C/C(=C(\N)Sc1ccc(N)cc1)c1ccccc1C(F)(F)F', 'residual activity', 109),
  ('Cn1nc2c3c(cccc31)C(=O)c1ccccc1-2', 'residual activity', 86),
  ('CC(C)n1cnc2/c(=N/c3cccc(Cl)c3)nc(NCCO)[nH]c21', 'residual activity', 65),
  ('O=C1NC(=O)c2cc(Nc3ccc(F)cc3)c(Nc3ccc(F)cc3)cc21', 'residual activity', 48),
  ('O=C1NC(=O)/C(=C\c2ccc3nccnc3c2)S1', 'residual activity', 27),
  ('O=c1c2ccccc2[nH]c(=S)n1CCN1CCC(=C(c2ccc(F)cc2)c2ccc(F)cc2)CC1', 'residual activity', 52),
  ('CN(C)c1ccc(/C=C2\C(=O)Nc3ccccc32)cc1', 'residual activity', 66),
  ('O=C1Nc2cc(Br)ccc2/C1=C1/Nc2ccccc2/C1=N\O', 'residual activity', 36),
  ('COc1cc2ncc(-c3ccccc3)nc2cc1OC', 'residual activity', 76),
  ('Oc1c2ccccc2c2c3c(cccc13)N=N2', 'residual activity', 70),
  ('Ic1cccc(CSc2nnc(-c3ccncc3)o2)c1', 'residual activity', 71),
  ('Cc1ccc(NC2=CC(=O)c3sc(C)nc3C2=O)cc1', 'residual activity', 97),
  ('C[C@@H](N)[C@H]1CC[C@H](C(=O)Nc2ccncc2)CC1', 'residual activity', 24),
  ('COc1cc2ncnc(N3CCN(C(=O)Nc4ccc(Oc5ccccc5)cc4)CC3)c2cc1OC', 'residual activity', 113),
  ('O=[N+]([O-])c1ccc(-c2nc(-c3ccc(F)cc3)c(-c3ccncc3)[nH]2)cc1', 'residual activity', 26),
  ('Cn1cnc2cc3c(Nc4cccc(Br)c4)ncnc3cc21', 'residual activity', 110),
  ('N#Cc1cnc2cnc(NCc3cccnc3)cc2c1Nc1ccc(F)c(Cl)c1', 'residual activity', 87),
  ('O=C1NC(=O)/C(=C/c2ccc3c(c2)OC(F)(F)O3)S1', 'residual activity', 77),
  ('Nc1cccc(-c2cc3c(Oc4cccc(O)c4)ncnc3[nH]2)c1', 'residual activity', 70);
